Data provenance: patent US20260337583A1

- Experimental system: CYP161H12 (Amycolatopsis pretoriensis)
- Sequence (A0A1H5RFX8 1-404): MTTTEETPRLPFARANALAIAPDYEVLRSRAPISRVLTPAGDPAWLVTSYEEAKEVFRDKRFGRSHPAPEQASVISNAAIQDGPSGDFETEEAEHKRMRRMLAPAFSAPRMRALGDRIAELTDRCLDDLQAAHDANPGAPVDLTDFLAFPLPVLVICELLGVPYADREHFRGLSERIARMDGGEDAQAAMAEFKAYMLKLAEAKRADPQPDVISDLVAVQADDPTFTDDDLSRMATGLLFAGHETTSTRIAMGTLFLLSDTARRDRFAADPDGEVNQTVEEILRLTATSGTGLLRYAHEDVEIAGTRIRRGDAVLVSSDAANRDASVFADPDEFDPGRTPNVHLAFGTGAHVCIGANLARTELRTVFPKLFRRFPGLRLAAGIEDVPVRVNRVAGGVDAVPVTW
- Experiment description: CYP161H12 catalytic activity on different substrates (cell-free CYP161H12-RHFRed/opt13 conversion, liquid chromatography)
- Cond: role: substrate; 2 mM substrate, 0.5 equiv. NADP+, 50 equiv. Na2HPO3·5H2O, 5% DMSO, pH 7.0, 23° C., 20 h; enzyme 3.68×10^−3 mM
Exercise: state measured yield of Substrate catalyzed by CYP161H12 for each of the compounds provided.
Output spec: scalar in %, unitless text.

Form field: reported yield of Substrate catalyzed by CYP161H12 of CC1(C)c2oncc2C[C@]2(C)[C@H]3C(=O)C=C4[C@H]5C[C@@](C)(C(=O)O)CC[C@]5(C)CC[C@@]4(C)[C@]3(C)CC[C@@H]12 [Substrate 8] 97

Form field: reported yield of Substrate catalyzed by CYP161H12 of CCC(=O)O[C@H]1CC[C@]2(C)[C@H]3C(=O)C=C4[C@@H]5C[C@@](C)(C(=O)O)CC[C@]5(C)CC[C@@]4(C)[C@]3(C)CC[C@H]2C1(C)C [Substrate 3, 3-propionyl-glycyrrhetinic acid] 61

Form field: reported yield of Substrate catalyzed by CYP161H12 of CC1(C)OC(=O)CC[C@]2(C)[C@H]3C(=O)C=C4[C@@H]5C[C@@](C)(C(=O)O)CC[C@]5(C)CC[C@@]4(C)[C@]3(C)CC[C@@H]12 [Substrate 7] 87

Form field: reported yield of Substrate catalyzed by CYP161H12 of CC1(C)[C@@H](O)CC[C@]2(C)[C@H]3C(=O)C=C4[C@@H]5C[C@@](C)(C(=O)O)CC[C@]5(C)CC[C@@]4(C)[C@]3(C)CC[C@@H]12 [Compound 1, glycyrrhetinic acid] 100

Form field: reported yield of Substrate catalyzed by CYP161H12 of CC1(C)C(=O)C=C[C@]2(C)[C@H]3C(=O)C=C4[C@@H]5C[C@@](C)(C(=O)O)CC[C@]5(C)CC[C@@]4(C)[C@]3(C)CC[C@@H]12 [Substrate 6, 3-oxo-1-ene-glycyrrhetinic acid] 81

Form field: reported yield of Substrate catalyzed by CYP161H12 of CC(=O)O[C@H]1CC[C@]2(C)[C@H]3C(=O)C=C4[C@@H]5C[C@@](C)(C(=O)O)CC[C@]5(C)CC[C@@]4(C)[C@]3(C)CC[C@H]2C1(C)C [Substrate 2, 3-acetyl-glycyrrhetinic acid] 92

Form field: reported yield of Substrate catalyzed by CYP161H12 of CCCC(=O)O[C@H]1CC[C@]2(C)[C@H]3C(=O)C=C4[C@@H]5C[C@@](C)(C(=O)O)CC[C@]5(C)CC[C@@]4(C)[C@]3(C)CC[C@H]2C1(C)C [Substrate 4, 3-butyryl-glycyrrhetinic acid] 23
